Tested on: TXK
Conditions: concentration: 1 μM, replicates: in singlicate; n = 1;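 also: KINOMEscan kinase panel screen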
assay endpoint: %Inh (%)
Number only, in %; omit the unit.

The cases that follow already have their %Inh on record.
[[record]]
compound = "Fc1ccc(-c2nc[nH]c2-c2ccncc2)cc1"
assay_endpoint = "%Inh"
unit_symbol = "%"
endpoint_result = 0

[[record]]
compound = "COc1ccc(Nc2nccc(N3CCC(NC(=O)C(C)c4ccc(Cl)cc4)C3)n2)cc1 (stereo not drawn)"
assay_endpoint = "%Inh"
unit_symbol = "%"
endpoint_result = 21


Kindly consider the entry below.
Which %Inh is listed for COc1ccc2cc(-c3nc(-c4ccccc4C(C)C)[nH]c3-c3ccncc3)ccc2c1 ? 35

---

Test system: MLK3
Conditions: concentration: 1 μM, replicates: in singlicate; n = 1
Property: %Inh; scope: individual compounds
Just the number please, in %, no unit attached.

[[record]]
smi = "CC(=O)c1c(C)c2cnc(Nc3ccc(N4CCNCC4)cn3)nc2n(C2CCCC2)c1=O"
endpoint_result = 0

[[record]]
smi = "COc1ccc(-c2coc3ccc(-c4nnc(C)o4)cc23)cc1"
endpoint_result = 1

[[record]]
smi = "Fc1ccc(-c2nc3n(c2-c2ccncc2)CCS3)cc1"
endpoint_result = 21

[[record]]
smi = "Cc1ccc(NC(=O)Nc2ccccc2)cc1-c1ccc(C(=O)Nc2ccncc2)cc1"
endpoint_result = 4


Now take the following compound into account.
Quick check: %Inh of Fc1ccc(-c2nn3cccc(F)c3c2-c2ccncc2)cc1 ? 18

---

Test system: PIK3CB
Details: concentration: 1 μM, replicates: in singlicate; n = 1
# %Inh per record follows
Write the answer as a number in %, unit excluded.

Take a look at these entries with their results.
[[record]]
smi = "Cc1ccc(NC(=O)Nc2ccc(Cl)cc2)cc1-c1ccc(C(=O)Nc2ccncc2)cc1"
unit_symbol = "%"
endpoint_result = 36

[[record]]
smi = "Nc1cccc(-c2ccc3c(N)n[nH]c3c2)n1"
unit_symbol = "%"
endpoint_result = 0

[[record]]
smi = "O=C1NC(=O)C(c2ccc(Cl)cc2)=C1Nc1ccc(O)cc1"
unit_symbol = "%"
endpoint_result = 0


Now look at this entry.
Report %Inh for CS(=O)(=O)Cc1ccc(Nc2nccc(-c3c(-c4cccc(NC(=O)C5CCCCC5)c4)nn4ncccc34)n2)cc1 please. 4

---

%Inh for assorted molecules
Test system: IRAK4
Settings: concentration: 1 μM, replicates: in singlicate; n = 1
Value expressed in %; do not type the unit.

[[record]]
molecule = "COc1ccc(Nc2nccc(N3CCC(NC(=O)C(C)c4ccc(Cl)cc4)C3)n2)cc1 (stereo not drawn)"
unit_symbol = "%"
endpoint_result = 3


Reported %Inh for Cc1nccc(-c2c(-c3ccc(F)cc3)ncn2CCCN2CCOCC2)n1.Cl : what is it? 30

Now this one: CNc1cc(-c2ccc3c(N)n[nH]c3c2)nc(N)n1 0

---

Listing of recorded %Inh by entry.
System: IKK-beta
Construct: gene IKBKB
Conditions: concentration: 1 μM, replicates: in singlicate; n = 1
Expressed in %, but write only the number.

Please review the following examples before continuing.
[[record]]
molecule = "O=C(Nc1n[nH]c2nc(-c3cccs3)c(Br)cc12)C1CCCC1"
assay_endpoint = "%Inh"
endpoint_result = 0

[[record]]
molecule = "COc1cccc(CNC(=O)NC2CCN(c3ccnc(Nc4ccc(F)cc4)n3)C2)c1 (stereo not drawn)"
assay_endpoint = "%Inh"
endpoint_result = 14


Here is another molecule to look at.
For the molecule shown here, Nc1nccc(-c2c(-c3ccc(F)cc3)ncn2C2CCN(Cc3ccccc3)CC2)n1 , give the reported %Inh. 0

---

Test system: MAST1
Conditions: concentration: 1 μM, replicates: in singlicate; n = 1
assay endpoint: %Inh (%)
State the answer as a number, implicitly in %.

[[record]]
molecule = "NS(=O)(=O)c1cccc(N/C=C2\\C(=O)Nc3ccc(S(=O)(=O)Cc4c(Cl)cccc4Cl)cc32)c1 [GSK398099]"
experimental_target = "MAST1"
assay_endpoint = "%Inh"
endpoint_result = 0


Find %Inh (MAST1) for the entry CC(C)c1cc(-c2ccc3c(N)n[nH]c3c2)nc(N)n1 [GSK2250882] 0

Request: CS(=O)(=O)CCNCc1nc(-c2ccc3ncnc(Nc4ccc(OCc5ccccc5)c(Cl)c4)c3c2)cs1.Cl [GW582764] 43

Would you kindly repeat that for Cc1ccc(NC(=O)c2ccc(Cl)cc2)cc1-c1ccc(C(=O)Nc2ccncc2)cc1 [GSK1398467] ? 0

Also check Cn1cncc1-c1cc2c(Nc3ccc(OCc4ccccc4)cc3)ncnc2cn1 [GW281179] 0

---

System: GRK3
Construct: gene ADRBK2
Conditions: concentration: 1 μM, replicates: in singlicate; n = 1
Classify by measured %Inh: fulfilled if it is equal to or exceeds 10%, not fulfilled if it is smaller.

[[record]]
smi = "CS(=O)(=O)CCNCc1nc(-c2ccc3ncnc(Nc4ccc5c(cnn5Cc5ccccc5)c4)c3c2)cs1.Cl.Cl"
answer_label = "fulfilled"

[[record]]
smi = "c1ccc(-c2ccnc3[nH]ccc23)cc1"
answer_label = "fulfilled"

[[record]]
smi = "Cc1ccccc1-c1cc(-c2c[nH]nc2-c2ccccn2)ccn1"
answer_label = "fulfilled"

[[record]]
smi = "Fc1ccc(-c2nc[nH]c2-c2ccncc2)cc1"
answer_label = "fulfilled"

[[record]]
smi = "Cc1c(Cn2c3ccccc3n3c(=O)cc(N4CCOCC4)nc23)cccc1C(F)(F)F"
answer_label = "not fulfilled"

[[record]]
smi = "COc1nccc(-c2c(-c3ccc(F)cc3)ncn2CCCN2CCOCC2)n1"
answer_label = "fulfilled"

[[record]]
smi = "Nc1cccc(-c2ccc3c(N)n[nH]c3c2)n1"
answer_label = "not fulfilled"


Then this compound:
Hello, I need to know if Cc1c(Cn2c(C)c(C)n3c(=O)cc(N4CCOCC4)nc23)cccc1C(F)(F)F has measured %Inh not below 10%. Thanks! not fulfilled

---

Tested on: RAF1
Conditions: concentration: 1 μM, replicates: in singlicate; n = 1
assay endpoint: %Inh (%)
Use % as the unit, but write only the number.

// worked examples, %Inh included
[[record]]
molecule = "COc1ccc(CSc2nnc(-c3ccc4nccn4c3)o2)cc1C(F)(F)F"
assay_endpoint = "%Inh"
endpoint_result = 4

[[record]]
molecule = "Cc1ccc(NC(=O)Nc2ccccc2)cc1-c1ccc(C(=O)Nc2ccncc2)cc1"
assay_endpoint = "%Inh"
endpoint_result = 73

[[record]]
molecule = "CC(C)c1cc(-c2ccc3c(N)n[nH]c3c2)nc(N)n1"
assay_endpoint = "%Inh"
endpoint_result = 0

[[record]]
molecule = "CNc1nc(-c2ccc3c(N)n[nH]c3c2)cc(N2C[C@@H](C(=O)Nc3ccccc3)CC[C@H]2C)n1"
assay_endpoint = "%Inh"
endpoint_result = 4

[[record]]
molecule = "CSc1ccc(-c2nc3n(c2-c2ccncc2)CCC3)cc1"
assay_endpoint = "%Inh"
endpoint_result = 0


What value of measured %Inh is listed for COc1ccc(Nc2nccc(N3CCC(NC(=O)C(C)c4ccc(Cl)cc4)CC3)n2)cc1 (centres unmarked) ? 60

CNC(=O)c1ccc(C)c(-n2c(C)cc(OCc3ccc(F)cc3F)c(Br)c2=O)c1 ? 0

# iterate: O=c1cc(N2CCOCC2)nc2n(Cc3ccccc3F)ccn12 0

---

System: ALK
Conditions: concentration: 1 μM, replicates: in singlicate; n = 1
Entries and their %Inh
Write the value in % as a bare number.

Guide cases for %Inh, answers given:
[[record]]
smi = "COc1ccc(CSc2nnc(-c3ccc4nccn4c3)o2)cc1C(F)(F)F"
assay_endpoint = "%Inh"
unit_symbol = "%"
endpoint_result = 29

[[record]]
smi = "CNc1cc(-c2ccc3c(N)n[nH]c3c2)nc(N)n1"
assay_endpoint = "%Inh"
unit_symbol = "%"
endpoint_result = 5

[[record]]
smi = "CN1c2ccc(-c3ccc(C(N)=O)cc3)cc2-c2[nH]ncc2S1(=O)=O"
assay_endpoint = "%Inh"
unit_symbol = "%"
endpoint_result = 30

[[record]]
smi = "Cl.Cl.Cl.N#Cc1ccc(CCNc2nccc(-c3cccc(CN4CCNCC4)c3)n2)cc1"
assay_endpoint = "%Inh"
unit_symbol = "%"
endpoint_result = 15

[[record]]
smi = "CS(=O)(=O)Cc1ccc(Nc2nccc(-c3c(-c4cccc(NC(=O)C5CCCCC5)c4)nn4ncccc34)n2)cc1"
assay_endpoint = "%Inh"
unit_symbol = "%"
endpoint_result = 29


Entry Cc1cccc2c(-c3ccncn3)c(-c3ccc(F)cc3)nn12 : reported %Inh = ? 23

Let us now turn to c1ccc(-c2ccnc3[nH]ccc23)cc1 33

And the next one, CCCCc1nn2ncccc2c1-c1ccnc(NC2CC2)n1 ? 17

Next compound up: COc1ccc(CSc2nnc(-c3ccc4ncsc4c3)o2)cc1C(F)(F)F 0

---

System: CSK
Conditions: concentration: 1 μM, replicates: in singlicate; n = 1
assay endpoint: %Inh (%)
Number only, in %; omit the unit.

Below are worked cases with known answers.
[[record]]
molecule = "COc1cccc(C2=C(Nc3cc(Cl)c(O)c(Cl)c3)C(=O)NC2=O)c1"
experimental_target = "CSK"
endpoint_result = 0

[[record]]
molecule = "Cc1ccccc1Cn1ccn2c(=O)cc(N3CCOCC3)nc12"
experimental_target = "CSK"
endpoint_result = 0

[[record]]
molecule = "NS(=O)(=O)c1cccc(N/C=C2\\C(=O)Nc3ccc(S(=O)(=O)Cc4c(Cl)cccc4Cl)cc32)c1"
experimental_target = "CSK"
endpoint_result = 0

[[record]]
molecule = "Fc1ccc(-c2nc[nH]c2-c2ccncc2)cc1"
experimental_target = "CSK"
endpoint_result = 6

[[record]]
molecule = "CS(=O)(=O)Cc1ccc(Nc2nccc(-c3c(-c4cccc(NC(=O)C5CCCCC5)c4)nn4ncccc34)n2)cc1"
experimental_target = "CSK"
endpoint_result = 10

[[record]]
molecule = "Cc1c(Cn2c3ccccc3n3c(=O)cc(N4CCOCC4)nc23)cccc1C(F)(F)F"
experimental_target = "CSK"
endpoint_result = 0

[[record]]
molecule = "CNc1cc(-c2ccc3c(N)n[nH]c3c2)nc(N)n1"
experimental_target = "CSK"
endpoint_result = 4

[[record]]
molecule = "CC(=O)c1c(C)c2cnc(Nc3ccn(C)n3)nc2n(C2CCCC2)c1=O"
experimental_target = "CSK"
endpoint_result = 1

[[record]]
molecule = "Cc1nccc(-c2c(-c3ccc(F)cc3)ncn2CCCN2CCOCC2)n1.Cl"
experimental_target = "CSK"
endpoint_result = 0

[[record]]
molecule = "Fc1ccc(-c2nc3n(c2-c2ccncc2)CCS3)cc1"
experimental_target = "CSK"
endpoint_result = 0


Record request: %Inh value, item Cc1c(Cn2c(C)c(C)n3c(=O)cc(N4CCOCC4)nc23)cccc1C(F)(F)F 0

One more molecule: COC(=O)C(NC(=O)NC1CCN(c2ccnc(Nc3ccc(F)cc3)n2)C1)c1ccccc1 (stereo not shown) 0

Try CS(=O)(=O)CCNCc1nc(-c2ccc3ncnc(Nc4ccc5c(cnn5Cc5ccccc5)c4)c3c2)cs1.Cl.Cl next. 0

Moving on to O=C1NC(=O)C(c2ccc(Cl)cc2)=C1Nc1cccc(Cl)c1 0

For CC(=O)c1cccc(NC(=O)NC2CCN(c3ccnc(Nc4ccc(F)cc4)n3)C2)c1 (stereo not shown) then? 5
